- target_entity: glucocorticoid receptor (GR) (Homo sapiens, UniProt P04150)
- Construct: endogenous in cells
- Sequence (P04150 1-777): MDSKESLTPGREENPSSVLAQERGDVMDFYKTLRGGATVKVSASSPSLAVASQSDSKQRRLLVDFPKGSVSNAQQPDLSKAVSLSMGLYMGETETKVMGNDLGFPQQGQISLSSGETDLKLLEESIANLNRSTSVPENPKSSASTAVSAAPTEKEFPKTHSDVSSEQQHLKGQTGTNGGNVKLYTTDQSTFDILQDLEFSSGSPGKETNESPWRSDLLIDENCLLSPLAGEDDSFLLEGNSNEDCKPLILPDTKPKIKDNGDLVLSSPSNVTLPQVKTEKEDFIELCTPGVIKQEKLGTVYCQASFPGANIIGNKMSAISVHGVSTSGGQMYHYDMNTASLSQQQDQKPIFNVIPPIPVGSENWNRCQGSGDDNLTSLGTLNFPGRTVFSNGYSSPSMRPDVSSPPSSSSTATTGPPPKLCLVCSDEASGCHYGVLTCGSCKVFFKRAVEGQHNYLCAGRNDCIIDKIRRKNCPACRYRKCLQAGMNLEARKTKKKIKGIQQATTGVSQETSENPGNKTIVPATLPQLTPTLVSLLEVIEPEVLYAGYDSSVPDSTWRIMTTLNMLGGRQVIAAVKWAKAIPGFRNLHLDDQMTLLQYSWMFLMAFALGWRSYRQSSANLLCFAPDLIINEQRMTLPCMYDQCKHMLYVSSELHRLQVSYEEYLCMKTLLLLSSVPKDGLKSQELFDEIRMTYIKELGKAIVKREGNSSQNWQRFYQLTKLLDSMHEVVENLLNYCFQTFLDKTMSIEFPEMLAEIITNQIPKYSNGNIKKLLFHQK
- assay_name: GR Ligand Binding Assay (3H-dexamethasone displacement, HeLa cell lysate)
- conditions: 3H-DEX trace, DEX as reference, read-out: GR BIND Ki
pKi: −log10 of the molar value.
assay_metric: pKi

> print(dat)
                                   molecule  reported.result
1  Cc1ccc(C(O)C[C@]2(CO)CCC3=Cc4c(cnn4-c4ccc(F)cc4)C[C@@]32C)cc1 (single isomer, unassigned) [Example 2b]             8.68
2  C[C@]12Cc3cnn(-c4cccc(F)c4)c3C=C1CC[C@@]2(CO)CC(O)c1cccnc1 (single isomer, unassigned) [Example 27a]             7.86
3  Cc1ccc(C(O)C[C@]2(CO)CCC3=Cc4c(cnn4-c4ccc(F)cc4)C[C@@]32C)nc1 (stereo partly drawn) [Example 16]             8.43
4  C[C@]12Cc3cnn(-c4ccc(F)cc4)c3C=C1CC[C@@]2(CO)CC(O)c1ccc(F)cn1 (single isomer, unassigned) [Example 22b]             8.29
5  COc1ccc(C(O)C[C@]2(CO)CCC3=Cc4c(cnn4-c4ccc(F)cc4)C[C@@]32C)nc1 (single isomer, unassigned) [Example 24b]             8.12
6  C[C@]12Cc3cnn(-c4ccc(F)cc4)c3C=C1CC[C@@]2(CO)CC(O)c1ncccc1F (single isomer, unassigned) [Example 10a]             8.51

###

- target_entity: human GR (Homo sapiens, UniProt P04150)
- Construct: naturally expresses the human GR; endogenous in cells
- assay_name: Transrepression Assay (GITAR), TNFα-β-lactamase reporter in U937 cells
- Format: cell-based
- conditions: U-937, activity repressed by 100 nM dexamethasone set as 100%
assay_metric: Emax (%)

> print(dat)
                                   compound  assay.metric  reported.result
1  C[C@]12Cc3cnn(-c4ccccc4)c3C=C1CC[C@@]2(CO)CC(O)c1cccnc1 (single isomer, unassigned) [Example 29a]          Emax             66.6
2  C[C@]12Cc3cnn(-c4cccc(F)c4)c3C=C1CC[C@@]2(CO)CC(O)c1ccccn1 (single isomer, unassigned) [Example 19a]          Emax             91.2
3  Cc1cccc(C(O)C[C@]2(CO)CCC3=Cc4c(cnn4-c4ccc(F)cc4)C[C@@]32C)c1 (single isomer, unassigned) [Example 5a]          Emax             84.7
